Value source: ChEMBL document CHEMBL1126036

Consider the following compounds and their measured solubility readings.
- Assay: Solubility (in 0.1 N HCl)
- Assay type: physicochemical
- Test Conditions: read-out: S
Quantity Name: solubility (mg/mL)

[[record]]
compound = "C[C@H](N)C(=O)N[C@H]1CCN(c2c(F)cc3c(=O)c(C(=O)O)cn(C4CC4)c3c2F)C1.Cl.O"
value_modifier = "="
experimental_value = 5.4

[[record]]
compound = "Cl.NCC(=O)NC1CCN(c2nc3c(cc2F)c(=O)c(C(=O)O)cn3C2CC2)C1.O (centres undefined)"
value_modifier = "="
experimental_value = 67

[[record]]
compound = "Cl.NCCCC[C@H](N)C(=O)NC1CCN(c2cc3c(cc2F)c(=O)c(C(=O)O)cn3C2CC2)C1.O (some centres undefined)"
value_modifier = "="
experimental_value = 69

[[record]]
compound = "C[C@H](N)C(=O)NC1CCN(c2cc3c(cc2F)c(=O)c(C(=O)O)cn3C2CC2)C1.Cl.O (some centres undefined)"
value_modifier = ">"
experimental_value = 100

